// IC50 lookup, one value per entry
System: HCV replicon 2B
Assay: microbe, parasite or virus in culture
Format: cell-based, Hepatitis C virus (HCV)
Settings: read-out: 2B IC50; HCV replicon 2B; Replicon Assay A
endpoint: IC50

- COC(=O)N[C@H](C(=O)N1CCC[C@H]1c1cnc(-c2ccc3c(c2)cc2n3C(c3cc4ccccc4s3)Oc3cc(-c4cnc([C@@H]5CCCN5C(=O)[C@@H](NC(=O)OC)C5CCOCC5)[nH]4)ccc3-2)[nH]1)C1CCOCC1 (single isomer, unassigned) [Compound 811]: 0.664 nM
- COC(=O)N[C@H](C(=O)N1C2CC2C[C@H]1c1ncc(-c2cc(F)c3c(c2)OC(c2ccc(C4CC4)s2)n2c-3cc3cc(-c4cnc([C@@H]5CCCN5C(=O)[C@@H](NC(=O)OC)C5C[C@@H](C)O[C@@H](C)C5)[nH]4)ccc32)[nH]1)C(C)C (single isomer, unassigned) [Compound 558]: 1.22 nM
- COC(=O)NC(C(=O)N1[C@@H]2C[C@@H]2C[C@H]1c1ncc(-c2ccc3c(c2)cc2n3C(c3ccc(C(F)F)s3)Oc3cc(-c4cnc([C@@H]5CCCN5C(=O)[C@@H](NC(=O)OC)C(C)C)[nH]4)cc(F)c3-2)[nH]1)C1CCOC(C)(C)C1 (single isomer, unassigned) [Compound 415]: 0.0126 nM
- COC(=O)N[C@H](C(=O)N1CCC[C@H]1c1ncc(-c2ccc3c(c2)OC(c2ccc(C4CC4)s2)n2c-3c(F)c3cc(-c4cnc([C@@H]5CCCN5C(=O)[C@@H](NC(=O)OC)C(C)C)[nH]4)ccc32)[nH]1)C(C)C (single isomer, unassigned) [Compound 604]: 0.0624 nM
- COC(=O)N[C@H](C(=O)N1CCC[C@H]1c1ncc(-c2ccc3c(c2)OC(c2cc4ccccc4s2)n2c-3cc3cc(-c4cnc([C@@H]5C[C@@H](F)CN5C(=O)[C@@H](NC(=O)OC)C5CCOCC5)[nH]4)ccc32)[nH]1)C1CCOCC1 (single isomer, unassigned) [Compound 812]: 0.15 nM
- COC(=O)N[C@H](C(=O)N1CCC[C@H]1c1ncc(-c2ccc3c(c2)OC(c2ccc(C4CC4)s2)n2c-3c(F)c3cc(-c4cnc([C@@H]5C[C@H]6C[C@H]6N5C(=O)[C@@H](NC(=O)OC)C(C)C)[nH]4)ccc32)[nH]1)C(C)C (single isomer, unassigned) [Compound 612]: 2.21 nM
- COC(=O)N[C@H](C(=O)N1CCC[C@H]1c1ncc(-c2cc(F)c3c(c2)OC(c2scc4c2OCCO4)n2c-3cc3cc(-c4cnc([C@@H]5CCCN5C(=O)[C@@H](NC(=O)OC)C(C)C)[nH]4)ccc32)[nH]1)C(C)C (single isomer, unassigned) [Compound 524]: 4.64 nM

* * *

Reported pIC50 values follow for various compounds
Tested on: HCV replicon 1AQ30D
Experiment: microbe, parasite or virus in culture
Assay type: cell-based, Hepatitis C virus (HCV)
Conditions: replicon 1AQ30D; Replicon Assay B; read-out: 1A Q30D IC50
pIC50: −log10 of the molar value.
endpoint: pIC50

• COCCc1ccc(C2Oc3cc(-c4cnc([C@@H]5CCCN5C(=O)[C@@H](NC(=O)OC)C(C)C)[nH]4)cc(F)c3-c3cc4cc(-c5cnc([C@@H]6CCCN6C(=O)[C@@H](NC(=O)OC)C(C)C)[nH]5)ccc4n32)s1 (single isomer, unassigned) [Compound 82] = 9.59
• COC(=O)NC(C(=O)N1CCC[C@H]1c1ncc(-c2cc(F)c3c(c2)OC(c2ccc(C)s2)n2c-3cc3cc(-c4cnc([C@@H]5CCCN5C(=O)[C@@H](NC(=O)OC)C5CCOCC5)[nH]4)ccc32)[nH]1)C(C)(C)F (single isomer, unassigned) [Compound 105] = 10.52
• COC(=O)N[C@H](C(=O)N1CCC[C@H]1c1ncc(-c2cc(F)c3c(c2)OC(c2ccc(C4CC4)s2)n2c-3cc3cc(-c4cnc([C@@H]5CCCN5C(=O)[C@@H](NC(=O)OC)C(C)C)[nH]4)ccc32)[nH]1)C(C)C (single isomer, unassigned) [Compound 6] = 9.49
• COC(=O)N[C@H](C(=O)N1CCC[C@H]1c1ncc(-c2cc(F)c3c(c2)OC(c2ccc(C(C)(C)C)s2)n2c-3cc3cc(-c4cnc([C@@H]5CCCN5C(=O)[C@@H](NC(=O)OC)C(C)C)[nH]4)ccc32)[nH]1)C(C)C (single isomer, unassigned) [Compound 63] = 9.47
• COC(=O)N[C@H](C(=O)N1[C@@H]2C[C@@H]2C[C@H]1c1ncc(-c2ccc3c(c2)OC(c2ccc(C4CC4)s2)n2c-3cc3cc(-c4cnc([C@@H]5C[C@H]6C[C@H]6N5C(=O)[C@@H](NC(=O)OC)C(C)C)[nH]4)ccc32)[nH]1)C(C)C (single isomer, unassigned) [Compound 8] = 9.33

* * *

Test system: HCV replicon 1AY93H
Assay: microbe, parasite or virus in culture
Type: cell-based, Hepatitis C virus (HCV)
Conditions: read-out: 1A Y93H IC50; HCV replicon 1A Y93H; Replicon Assay A
Procedure: To measure cell-based anti-HCV activity of compounds of the present invention, two complimentary assays were employed using various replicons. […] The replicon RNA level was measured using real time PCR (TaqMan® EZ RT-PCR, Applied Biosystems 403028) with the following primers and probes: […] The amount of HCV replicon RNA per cell is quantified using a linear regression curve for a known nanogram (ng) amount of HCV replicon total RNA. […]
Recorded log10(IC50), one value per entry.
endpoint: log10(IC50) (log10 of the value in nM)

- COC(=O)N[C@H](C(=O)N1CCC[C@H]1c1ncc(-c2cc(F)c3c(c2)OC(c2cc(C)c(C)s2)n2c-3cc3cc(-c4cnc([C@@H]5C[C@H]6C[C@H]6N5C(=O)[C@@H](NC(=O)OC)C(C)C)[nH]4)ccc32)[nH]1)C(C)C (single isomer, unassigned) [Compound 508]: -0.22
- COC(=O)N[C@H](C(=O)N1C[C@H](F)C[C@H]1c1ncc(-c2ccc3c(c2)cc2n3C(c3cc4ccccc4s3)Oc3cc(-c4cnc([C@@H]5CCCN5C(=O)[C@@H](NC(=O)OC)C5CCOCC5)[nH]4)ccc3-2)[nH]1)C(C)C (single isomer, unassigned) [Compound 625]: -2.31
- COC(=O)N[C@H](C(=O)N1C[C@H](F)C[C@H]1c1cnc(-c2ccc3c(c2)cc2n3C(c3cc4ccccc4s3)Oc3cc(-c4cnc([C@@H]5C[C@@H](F)CN5C(=O)[C@@H](NC(=O)OC)C(C)C)[nH]4)ccc3-2)[nH]1)C(C)C (single isomer, unassigned) [Compound 806]: -1.64
- COC(=O)N[C@H](C(=O)N1CCC[C@H]1c1ncc(-c2cc(C)c3c(c2)OC(c2ccc(C4CC4)s2)n2c-3cc3cc(-c4cnc([C@@H]5CCCN5C(=O)[C@@H](NC(=O)OC)C(C)C)[nH]4)ccc32)[nH]1)C(C)C (single isomer, unassigned) [Compound 753]: -1.22
- COCc1ccc(C2Oc3cc(-c4cnc([C@@H]5CCCN5C(=O)[C@@H](NC(=O)OC)C(C)C)[nH]4)cc(F)c3-c3cc4cc(-c5cnc([C@@H]6CCCN6C(=O)[C@@H](NC(=O)OC)[C@@H]6C[C@@H](C)O[C@@H](C)C6)[nH]5)ccc4n32)s1 (single isomer, unassigned) [Compound 533]: -1.04
- COC(=O)N[C@H](C(=O)N1C[C@H](F)C[C@H]1c1cnc(-c2ccc3c(c2)cc2n3C(c3cc4ccccc4s3)Oc3cc(-c4cnc([C@@H]5C[C@@H](F)CN5C(=O)[C@@H](NC(=O)OC)C(C)C)[nH]4)ccc3-2)[nH]1)C(C)C (single isomer, unassigned) [Compound 805]: -2.00
- COC(=O)NC(C(=O)N1[C@@H]2C[C@@H]2C[C@H]1c1ncc(-c2ccc3c(c2)c(F)c2n3C(c3ccc(C4CC4)s3)Oc3cc(-c4cnc([C@@H]5CCCN5C(=O)[C@@H](NC(=O)OC)C(C)C)[nH]4)cc(F)c3-2)[nH]1)C1CCOC(C)(C)C1 (single isomer, unassigned) [Compound 423]: -2.38

* * *

Tested on: HCV replicon 1A
Test: microbe, parasite or virus in culture
Assay type: cell-based, Hepatitis C virus (HCV)
Conditions: HCV replicon 1A; Replicon Assay A
endpoint: IC50 (pM)

• COC(=O)N[C@H](C(=O)N1C[C@H](F)C[C@H]1c1ncc(-c2ccc3c(c2)OC(c2ccc(C)s2)n2c-3cc3cc(-c4cnc([C@@H]5C[C@H]6C[C@H]6N5C(=O)[C@@H](NC(=O)OC)C(C)C)[nH]4)ccc32)[nH]1)C(C)C (single isomer, unassigned) [Compound 706] = 23
• CCc1ccc(C2Oc3cc(-c4cnc([C@@H]5CCCN5C(=O)[C@@H](NC(=O)OC)C(C)C)[nH]4)ccc3-c3c(F)c4cc(-c5cnc([C@@H]6CCCN6C(=O)C(NC(=O)OC)C6C[C@@H](C)O[C@@H](C)C6)[nH]5)ccc4n32)s1 (single isomer, unassigned) [Compound 635] = 2.4
• COC(=O)N[C@H](C(=O)N1CCC[C@H]1c1ncc(-c2cc(F)c3c(c2)OC(c2cc4c(s2)CCCO4)n2c-3cc3cc(-c4cnc([C@@H]5CCCN5C(=O)[C@@H](NC(=O)OC)C5CCOC(C)(C)C5)[nH]4)ccc32)[nH]1)C(C)C (single isomer, unassigned) [Compound 412] = 9.4
• COC(=O)N[C@H](C(=O)N1CCC[C@H]1c1ncc(-c2cc(C)c3c(c2)OC(c2ccc(C4CC4)s2)n2c-3cc3cc(-c4cnc([C@@H]5C[C@H]6C[C@H]6N5C(=O)[C@@H](NC(=O)OC)C(C)C)[nH]4)ccc32)[nH]1)C(C)C (single isomer, unassigned) [Compound 755] = 2.8
